Each recorded value in this set is attributed to paper PMC3928310.

- Tested system: T1, MC1 R25A (Methanosarcina thermophila CHTI55, UniProt P12770 1-93, R25A)
- T1 sequence: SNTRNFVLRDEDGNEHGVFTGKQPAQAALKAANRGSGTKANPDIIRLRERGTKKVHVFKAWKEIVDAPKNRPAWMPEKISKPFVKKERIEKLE
- Experiment description: EMSA; EMSA: 10 mM Tris-HCl pH 7.5, 150 mM NaCl, 1 mM EDTA, 15 ug/ml BSA, 8% glycerol, 15 min at 20 C, 0.1 nM DNA, TBE gel; NMR PRE: 10 mM phosphate pH 6, 100 mM NaCl, 10% D2O
- Experimental setup: protein: recombinant; label: 5'-32P on one strand; blunt
Measurement name: Kd (nM)
Numbers only, in nM.

Asked: Kd for 26 bp EMSA duplex (dsDNA) DNA 1: GCCTCAAAAACACACACCCCCGACAG DNA 2: CTGTCGGGGGTGTGTGTTTTTGAGGC ?
Given back: 161
